assayedSystem: T1, TFECDHis (extracellular domain of tissue factor, amino acid 1-251, with C-terminal His tag) (human, UniProt P13726 33-251)
T1 construct: range 1-251; The stated range 1-251 starts at residue 1 of NP-001984; also called extracellular domain of TF
assayMethodText: competition ELISA, inhibition of FVIIa (100 nM) binding to coated TFECDHis
readoutType: pIC50
# pIC50 = -log10(concentration in molar units)

anti-TF HuMab 003 (antibody, V domains shown, Human monoclonal antibody from HuMab mice; also called HuMab-TF-003) VH: QVQLVQSGAEVKKPGSSVKVSCKAPRGTFSYYTISWVRQAPGQGLEWMGRIIPILGVANYAQKFQGRVTITADKSTSTAYMELSSLRSEDTAVYYCAREGDRRYFDYWGQGTLVTVSS VL: AIQLTQSPSSLSASVGDRVTITCRASQDISSALAWYQQKPGKAPKLLIYDASILESGVPSRFSGSGSGTDFTLTISSLQPEDFATYYCQQFNSYPLTFGGGTKVEIK	8.72
anti-TF HuMab 044 (antibody, V domains shown, Human monoclonal antibody from HuMab mice) VH: QVQLVESGGGVVQPGRSLRLSCAASGFTFSDYAMHWVRQAPGKGLEWVAVIPYDGDNKYYADSVKGRFTISRDNSKNTLYLQMNSLRAEDTAVYYCAREDWGLEVDYWGQGALVTVSS VL: AIQLTQSPSSLSASVGDRVTITCRASQGINSALAWYQQKPGKAPKLLIYDASSLESGVPSRFSGSGSGTDFTLTISSLQPEDFATYYCQQFNSYPLTFGGGTKVEIK	9.10
anti-TF HuMab 013 (antibody, V domains shown, Human monoclonal antibody from HuMab mice; also called HuMab-TF-13) VH: EVQLVQSGAEVKKPGESLKISCKGSGYSFTSYWIGWVRQMPGKGLEWMGIIYPGDSDTRYSPSFQGQVTISADKSISTAYLQWSSLKASDTAMYYCARIHRGAGYSSSWPGAFDIWGQGTMVTVSS VL: DIQMTQSPSSLSASVGDRVTITCRASQGISRWLAWYQQKPEKAPKSLIYAASSLQSGVPSRFSGSGSGTDFTLTISSLQPEDFATYYCQQYDSDPITFGQGTRLEIK	7.71

Turning now to a further record.
According to the records, this binder anti-TF HuMab 098 (antibody, V domains shown, Human monoclonal antibody from HuMab mice; also called HuMab-TF-098; HuMab-TF-98) VH: QVQLVQSGAEVRKPGSSVKVSCKASGGSFNNYPIFWVRQAPGQGFEWMGRIIPILGITAYAQKFQGRVTITADKSTSTAYMELNSLRSEDTAVYYCAGGDDLDAFDIWGQGTMVSVSS VL: DIQMTQSPSSLSASVGDRVTITCRASQGISSWLAWYQQKPEKAPKSLIYAASSLQSGVPSRFSGSGSGTDFTLTISSLQPEDFATYYCQQYNSYPYTFGQGTKLEIK displays pIC50 of 9.10

Origin of the recorded values: patent US20110300156A1
